The reported numbers originate from the NIST ThermoML archive (doi:10.1016/j.fluid.2009.01.011).

assay: activity coefficient (dimensionless); of the first substance listed, at infinite dilution; xn = mol fraction of the nth substance listed; conditions: 358.15 K; Liquid; Chromatography; x1 = 0
property measured: activity coefficient

Worked set:
{"compound": "CCO [ethanol] + CCCC[N+]1(C)CCCC1.O=S(=O)([O-])C(F)(F)F", "activity coefficient": 0.791}
{"compound": "C=CCCC [1-pentene] + CCCC[N+]1(C)CCCC1.O=S(=O)([O-])C(F)(F)F", "activity coefficient": 12.2}
{"compound": "C1CCCCCC1 [cycloheptane] + CCCC[N+]1(C)CCCC1.O=S(=O)([O-])C(F)(F)F", "activity coefficient": 18.9}
{"compound": "C1CCOC1 [tetrahydrofuran] + CCCC[N+]1(C)CCCC1.O=S(=O)([O-])C(F)(F)F", "activity coefficient": 1.45}
{"compound": "c1ccsc1 [thiophene] + CCCC[N+]1(C)CCCC1.O=S(=O)([O-])C(F)(F)F", "activity coefficient": 1.13}
{"compound": "CO [methanol] + CCCC[N+]1(C)CCCC1.O=S(=O)([O-])C(F)(F)F", "activity coefficient": 0.563}

(P) O [water] + CCCC[N+]1(C)CCCC1.O=S(=O)([O-])C(F)(F)F
(Q) C#CCCCCC [1-heptyne] + CCCC[N+]1(C)CCCC1.O=S(=O)([O-])C(F)(F)F
(R) CCCCO [butan-1-ol] + CCCC[N+]1(C)CCCC1.O=S(=O)([O-])C(F)(F)F
(S) CCCCCCCC [octane] + CCCC[N+]1(C)CCCC1.O=S(=O)([O-])C(F)(F)F
-- ask Sort (4 compounds) by activity coefficient: min first. Please express your ranking as an ordered list of the labels.
-- reply P, R, Q, S
(P: 0.739, R: 1.29, Q: 5.7, S: 58.4)

(a) C#CCCCCCC [1-octyne] + CCCC[N+]1(C)CCCC1.O=S(=O)([O-])C(F)(F)F
(b) CCCCCCC [heptane] + CCCC[N+]1(C)CCCC1.O=S(=O)([O-])C(F)(F)F
(c) c1ccccc1 [benzene] + CCCC[N+]1(C)CCCC1.O=S(=O)([O-])C(F)(F)F
(d) C1CCCC1 [cyclopentane] + CCCC[N+]1(C)CCCC1.O=S(=O)([O-])C(F)(F)F
-- ask Sort (4 compounds) by activity coefficient: min first. Please express your ranking as an ordered list of the labels.
-- reply c, a, d, b
(c: 1.54, a: 7.94, d: 11.7, b: 43.3)

(A) CCCCCC [hexane] + CCCC[N+]1(C)CCCC1.O=S(=O)([O-])C(F)(F)F
(B) CCc1ccccc1 [ethylbenzene] + CCCC[N+]1(C)CCCC1.O=S(=O)([O-])C(F)(F)F
(C) C=CCCCC [hex-1-ene] + CCCC[N+]1(C)CCCC1.O=S(=O)([O-])C(F)(F)F
(D) CCCCCCCCCC [decane] + CCCC[N+]1(C)CCCC1.O=S(=O)([O-])C(F)(F)F
(E) CCCO [propan-1-ol] + CCCC[N+]1(C)CCCC1.O=S(=O)([O-])C(F)(F)F
-- ask Sort (5 compounds) by activity coefficient: min first. Please express your ranking as an ordered list of the labels.
-- reply E, B, C, A, D
(E: 0.995, B: 3.53, C: 15.7, A: 33.3, D: 110)
